Test system: Staphylococcus aureus
Test: Antibacterial activity against tet(K) tetracycline-resistant Staphylococcus aureus 158 assessed as bacterial growth inhibition by susceptibility testing assay
Type: functional
Conditions: Staphylococcus aureus, 158; read-out: MIC
recordedMetric: MIC (µg/mL)
Just the number please, in µg/mL, no unit attached.

Entry under test: CCN1CC[C@H]2CNc3c(O)c4c(c(F)c3[C@H]21)C[C@H]1C[C@H]2[C@H](N(C)C)C(O)=C(C(N)=O)C(=O)[C@@]2(O)C(O)=C1C4=O . Its MIC was 0.0625

Entry under test: CN(C)[C@@H]1C(O)=C(C(N)=O)C(=O)[C@@]2(O)C(O)=C3C(=O)c4c(O)c5c(c(OC(F)(F)F)c4C[C@H]3C[C@@H]12)C1NCCC1CN5 (mixture of isomers) . Its MIC was 0.25

Entry under test: CCCN1CC[C@@]2(C)CNc3c(O)c4c(c(F)c3[C@@H]12)C[C@H]1C[C@H]2[C@H](N(C)C)C(O)=C(C(N)=O)C(=O)[C@@]2(O)C(O)=C1C4=O . Its MIC was 0.125

Entry under test: CN(C)CCN1CC[C@H]2CNc3c(O)c4c(c(F)c3[C@H]21)C[C@H]1C[C@H]2[C@H](N(C)C)C(O)=C(C(N)=O)C(=O)[C@@]2(O)C(O)=C1C4=O . Its MIC was 1

Provenance of the data: ChEMBL document CHEMBL3580574
